Recorded measurements of IC50, one per entry
Target: C-X-C chemokine receptor type 1 (Homo sapiens, UniProt P25024)
Sequence (P25024 whole entry): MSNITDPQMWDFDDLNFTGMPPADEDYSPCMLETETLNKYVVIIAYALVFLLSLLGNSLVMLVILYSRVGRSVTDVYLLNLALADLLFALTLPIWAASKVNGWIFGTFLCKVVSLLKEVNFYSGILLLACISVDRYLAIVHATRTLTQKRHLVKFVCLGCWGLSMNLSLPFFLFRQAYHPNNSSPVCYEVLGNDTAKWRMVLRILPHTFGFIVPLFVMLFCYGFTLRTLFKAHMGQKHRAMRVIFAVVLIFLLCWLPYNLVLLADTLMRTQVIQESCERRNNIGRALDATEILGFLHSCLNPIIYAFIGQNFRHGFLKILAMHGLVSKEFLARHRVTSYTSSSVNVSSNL
Experiment: Assay Drug Dev Technol. 2007 February; 5(1); 137-44).
Enter your answer as a number in µM; do not include the unit.

>  <compound>
Cc1ccc([C@H](Nc2c(Nc3csc(C(=O)N(C)C)c3O)c(=O)c2=O)C2(C)COC2)o1

>  <assay.readout>
IC50

>  <test.result>
3.9

$$$$

Enquiry: Please provide the recorded IC50 for `Cc1ccc([C@H](Nc2c(Nc3cccc(C(=O)N(C)C)c3O)c(=O)c2=O)C2(C)COC2)o1` , tested on C-X-C chemokine receptor type 1 (Homo sapiens, UniProt P25024).
Return: 0.312

Enquiry: Please provide the recorded IC50 for Cc1ccc(C(Nc2c(Nc3cccc(C(=O)N(C)C)c3O)c(=O)c2=O)C2(C)COC2)s1 (stereo not drawn) , tested on C-X-C chemokine receptor type 1 (Homo sapiens, UniProt P25024).
Return: 3.03

* * *

Recorded measurements of pIC50, one per entry
Target: C-X-C chemokine receptor type 2 (Homo sapiens, UniProt P25025)
Sequence (P25025 whole entry): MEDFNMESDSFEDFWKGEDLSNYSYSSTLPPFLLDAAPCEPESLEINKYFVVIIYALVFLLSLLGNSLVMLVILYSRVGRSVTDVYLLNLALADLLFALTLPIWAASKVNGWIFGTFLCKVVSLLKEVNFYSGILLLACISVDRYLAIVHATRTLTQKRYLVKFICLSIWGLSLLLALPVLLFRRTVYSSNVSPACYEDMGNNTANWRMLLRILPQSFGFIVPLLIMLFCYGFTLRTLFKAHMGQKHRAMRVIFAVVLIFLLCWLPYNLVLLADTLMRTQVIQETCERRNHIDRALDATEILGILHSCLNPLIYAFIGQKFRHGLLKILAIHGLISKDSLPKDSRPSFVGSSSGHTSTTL
Assay: Assay Drug Dev Technol. 2007 February; 5(1); 137-44).
Scale for pIC50: -log10 of concentration given in mol/L; no unit attached.

>  <molecule>
Cc1ccc([C@H](Nc2c(Nc3cccc(C(=O)N(C)C)c3O)c(=O)c2=O)C2(C)COC2)o1

>  <pIC50>
7.14

$$$$

Enquiry: I have this molecule here, Cc1ccc(C(Nc2c(Nc3cccc(C(=O)N(C)C)c3O)c(=O)c2=O)C2(C)COC2)s1 (stereo not drawn) , and I need its recorded pIC50.
Return: 6.84

Enquiry: I have this molecule here, `Cc1ccc([C@H](Nc2c(Nc3csc(C(=O)N(C)C)c3O)c(=O)c2=O)C2(C)COC2)o1` , and I need its recorded pIC50.
Return: 7.02
